These entries and their values trace back to the supplement of paper PMC12669032.

# System: Coprococcus comes
# ASSAY_TEXT: growth AUC relative to DMSO control (median of replicates) (fraction); higher = more growth (less inhibition), active = hit call of the paper
# MEASUREMENT_CONDITIONS: 20 µM; 24 h
Listed next: entries and their corresponding growth AUC.
Reply with the value as a number alone.

For record "CC(C)Nc1nc(Cl)nc(NC(C)C)n1" the listed growth AUC is 0.958

For record CC(C)=CC1C(C(=O)OC(C#N)c2cccc(Oc3ccccc3)c2)C1(C)C (mixture of isomers) the listed growth AUC is 0.983

For record "OC(c1ccc(Cl)cc1)(c1ccc(Cl)cc1)C(Cl)(Cl)Cl" the listed growth AUC is 1.01

For record CCOP(=S)(NC(C)CC)Oc1cc(C)ccc1[N+](=O)[O-] (stereo not drawn) the listed growth AUC is 0.967

For record "CCN(CC)C(=S)[S-].O.O.O.[Na+]" the listed growth AUC is 0.964

For record "CCOP(=O)(OCC)Oc1ccc(S(C)(=O)=O)cc1" the listed growth AUC is 1.01

For record "Fc1ccc(Oc2ccnc3cc(Cl)cc(Cl)c23)cc1" the listed growth AUC is 0.969

For record CCC(C)c1cc([N+](=O)[O-])cc([N+](=O)[O-])c1O (stereo not drawn) the listed growth AUC is 0.884

* * *

# Test system: Bacteroides caccae
# ASSAY_TEXT: growth AUC relative to DMSO control (median of replicates) (fraction); higher = more growth (less inhibition), active = hit call of the paper
# MEASUREMENT_CONDITIONS: 20 µM; 24 h
READOUT_TYPE: growth AUC

Example entries begin here.
# COMPOUND, MEASURED_TARGET, READOUT_TYPE, RESULT
records = [
    ("O=S1OCC2C(CO1)C1(Cl)C(Cl)=C(Cl)C2(Cl)C1(Cl)Cl (stereo unspecified)", "Bacteroides caccae", "growth AUC", "1 (inactive)"),
    ("CCNc1nc(NC(C)C)[nH]c(=O)n1", "Bacteroides caccae", "growth AUC", "1 (inactive)"),
    ("COc1cc(OC)nc(Sc2cccc(Cl)c2C(=O)O)n1", "Bacteroides caccae", "growth AUC", "1.01 (inactive)"),
]

For record "CCOc1cc(Oc2ccc(C(F)(F)F)cc2Cl)ccc1[N+](=O)[O-]" the listed growth AUC is 0.966 (inactive)

For record Clc1ccc(C2(Cn3cncn3)CC(Br)CO2)c(Cl)c1 (stereo unspecified) the listed growth AUC is 0.973 (inactive)

For record "Nc1c(Cl)c(Cl)c(Cl)c(Cl)c1Cl" the listed growth AUC is 0.897 (inactive)

* * *

# Tested on: Bacteroides thetaiotaomicron
# ASSAY_TEXT: growth AUC relative to DMSO control (median of replicates) (fraction); higher = more growth (less inhibition), active = hit call of the paper
# MEASUREMENT_CONDITIONS: 20 µM; 24 h
READOUT_TYPE: growth AUC
Reply with the value as a number alone.

For record "CN(C)C(=O)Nc1ccc(Cl)cc1" the listed growth AUC is 0.973

For record "C=C(C)CN(CC)c1c([N+](=O)[O-])cc(C(F)(F)F)cc1[N+](=O)[O-]" the listed growth AUC is 0.998

For record N#Cc1nn(-c2c(Cl)cc(C(F)(F)F)cc2Cl)c(N)c1S(=O)C(F)(F)F (stereo not given) the listed growth AUC is 0.986

For record "COC(=O)c1ccccc1S(=O)(=O)NC(=O)Nc1nc(C)cc(C)n1" the listed growth AUC is 0.979

For record "C=CCN=C=S" the listed growth AUC is 1.02

For record "CC(C)(COCc1cccc(Oc2ccccc2)c1)c1ccc(OC(F)(F)Br)cc1" the listed growth AUC is 0.976

For record "Oc1ccccc1-c1ccccc1" the listed growth AUC is 1.01

For record "CCC(C)(C)c1ccc(O)cc1" the listed growth AUC is 1

For record CCS(=O)Cc1ccccc1OC(=O)NC (stereo not given) the listed growth AUC is 1

For record "CNC(=O)CSP(=S)(OC)OC" the listed growth AUC is 1.01

* * *

# System: Lactobacillus gasseri
# ASSAY_TEXT: growth AUC relative to DMSO control (median of replicates) (fraction); higher = more growth (less inhibition), active = hit call of the paper
# MEASUREMENT_CONDITIONS: 20 µM; 24 h
READOUT_TYPE: growth AUC
Reply with the value as a number alone.

Example entries begin here.
# COMPOUND, READOUT_TYPE, NUMERIC_VALUE
data = [
    ("COC[C@H](C)N(C(=O)CCl)c1c(C)csc1C", "growth AUC", 0.922),
    ("CCOP(=O)(OCC)O/C(=C\\Cl)c1ccc(Cl)cc1Cl", "growth AUC", 1.06),
    ("CCNP(=S)(OC)O/C(C)=C/C(=O)OC(C)C (stereo not drawn)", "growth AUC", 0.968),
    ("COP(=S)(OC)Oc1c(Cl)cc(C)cc1Cl", "growth AUC", 0.925),
    ("COP(=O)(OC)Oc1ccc(SC)c(C)c1", "growth AUC", 1.1),
    ("CC1(C)C(C(=O)OC(C#N)c2cccc(Oc3ccccc3)c2)C1(C)C (stereo not drawn)", "growth AUC", 0.909),
]

For record "O=C1C(Cl)=C(Cl)C(=O)c2ccccc21" the listed growth AUC is 0.929

For record "CCSC(=O)N1CCCCCC1" the listed growth AUC is 1.06

* * *

# System: Roseburia intestinalis
# ASSAY_TEXT: growth AUC relative to DMSO control (median of replicates) (fraction); higher = more growth (less inhibition), active = hit call of the paper
# MEASUREMENT_CONDITIONS: 20 µM; 24 h
Use Satisfied when the recorded growth AUC is no lower than 1; use Not satisfied when it is lower.

Sample answers from the record:
# COMPOUND, QUALITATIVE_LABEL
records = [
    ("COP(N)(=S)Oc1ccccc1C(=O)OC(C)C (stereo not given)", "Satisfied"),
    ("CCSCCSP(=S)(OC)OC", "Satisfied"),
    ("Cc1ccc2nc3sc(=O)sc3nc2c1", "Not satisfied"),
    ("O=P(Oc1ccccc1)(Oc1ccccc1)Oc1ccccc1", "Not satisfied"),
    ("CCOC(=O)C(SP(=S)(OC)OC)c1ccccc1 (stereo not given)", "Satisfied"),
    ("O=c1oc2ccccc2c(O)c1C1CC(c2ccc(-c3ccccc3)cc2)Cc2ccccc21 (stereo not given)", "Not satisfied"),
]

*Q* Check if growth AUC >= 1 (inclusive). Item: "CCOP(=O)(Sc1ccccc1)Sc1ccccc1"
*A* Not satisfied

*Q* Check if growth AUC >= 1 (inclusive). Item: "Cl.NC1=NCCN1Cc1ccc(Cl)nc1"
*A* Not satisfied

*Q* Check if growth AUC >= 1 (inclusive). Item: "O=[N+]([O-])c1c(Cl)c(Cl)cc(Cl)c1Cl"
*A* Satisfied

*Q* Check if growth AUC >= 1 (inclusive). Item: "CC(C)NC(=O)N1CC(=O)N(c2cc(Cl)cc(Cl)c2)C1=O"
*A* Satisfied

*Q* Check if growth AUC >= 1 (inclusive). Item: CC1COC(Cn2cncn2)(c2ccc(Oc3ccc(Cl)cc3)cc2Cl)O1 (stereo not given)
*A* Not satisfied

*Q* Check if growth AUC >= 1 (inclusive). Item: "COP(=O)(OC)O/C(=C\Cl)c1ccc(Cl)cc1Cl"
*A* Satisfied

*Q* Check if growth AUC >= 1 (inclusive). Item: CCC(C)c1cc([N+](=O)[O-])cc([N+](=O)[O-])c1OC(=O)C=C(C)C (stereo not given)
*A* Not satisfied

* * *

# Test system: Escherichia coli ED1a
# ASSAY_TEXT: growth AUC relative to DMSO control (median of replicates) (fraction); higher = more growth (less inhibition), active = hit call of the paper
# MEASUREMENT_CONDITIONS: 20 µM; 24 h
Listed next: entries and their corresponding growth AUC.
Reply with the value as a number alone.

# COMPOUND, NUMERIC_VALUE
records = [
    ("Cc1ccc(NC(=O)c2snnc2C)cc1Cl", 0.968),
    ("CCOP(=O)(N=C1SCC(C)S1)OCC (stereo not drawn)", 1.02),
    ("CC1(C)OC(c2ccco2)CN1C(=O)C(Cl)Cl (stereo not drawn)", 1.01),
    ("OC(c1ccc(Cl)cc1)(c1cncnc1)c1ccccc1Cl (stereo not drawn)", 0.991),
    ("CNC(=O)Oc1cccc2ccccc12", 1.01),
]

For record CP(=O)(O)CCC(N)C(=O)[O-].[NH4+] (stereo not drawn) the listed growth AUC is 1.02

For record "COCCN(C(=O)CCl)c1c(C)cccc1C" the listed growth AUC is 1

For record "C[C@@H](Oc1ccc(Oc2ncc(C(F)(F)F)cc2Cl)cc1)C(=O)O" the listed growth AUC is 0.97
